This collection of values is drawn from BigSolDB 2.1.

Conditions: in isobutanol, 298.15 K
VALUE KIND: solubility (mole fraction)
Just the number, please, no unit after it.

Ask: # solubility (mole fraction) lookup, item `O=C(O)Cc1ccccc1[N+](=O)[O-]`
Result: 0.0169

* * *

Details: in isobutanol, 293.15 K
VALUE KIND: solubility (mole fraction)
Just the number, please, no unit after it.

Ask: # solubility (mole fraction) lookup, item `O=C(O)Cc1ccccc1[N+](=O)[O-]`
Result: 0.0134

* * *

Conditions: in isopropanol, 293.15 K
VALUE KIND: solubility (mole fraction)

Ask: # solubility (mole fraction) lookup, item `O=C(O)Cc1ccccc1[N+](=O)[O-]`
Result: 0.0216
